B1: glmS ribozyme (parent)
chain: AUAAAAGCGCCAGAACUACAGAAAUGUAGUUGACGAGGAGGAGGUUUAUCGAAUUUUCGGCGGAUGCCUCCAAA

Variants of: B1
testProtocol: self-cleavage kobs at 160 uM GlcN6P; higher = faster cleavage; RNA array
conditionSummary: with glucosamine-6-phosphate
This sample holds only a part of the variants without activity.
assayMetric: self-cleavage kobs at 160 uM GlcN6P

>>> recordedmeasurement("G9A G29A A42G A48C U65A")
"< 1e-05 s⁻¹"
>>> recordedmeasurement("G29A A53G")
"0.000249 s⁻¹"
>>> recordedmeasurement("C16A U56A")
"9.31e-05 s⁻¹"

Need self-cleavage kobs at 160 uM GlcN6P for each of these variants.
1. G32C U49A
2. U57C C58U
3. C11G A42C

1. < 1e-05 s⁻¹
2. < 1e-05 s⁻¹
3. < 1e-05 s⁻¹

Need self-cleavage kobs at 160 uM GlcN6P for each of these variants.
1. A42G C70U
2. A53C G62U
3. A14U C67A
4. A39U U56G
5. C10U G13U
6. C61U G62A
7. A6U G29C
8. A14C G29A A33U

1. 0.00157 s⁻¹
2. < 1e-05 s⁻¹
3. 0.000172 s⁻¹
4. 0.000402 s⁻¹
5. < 1e-05 s⁻¹
6. < 1e-05 s⁻¹
7. < 1e-05 s⁻¹
8. < 1e-05 s⁻¹

Need self-cleavage kobs at 160 uM GlcN6P for each of these variants.
1. U45A U54A
2. U31C G66A
3. C10U A14C A36G G41A
4. A14C C71U
5. A14C A53U
6. A39U G40U

["0.00611 s⁻¹", "0.000128 s⁻¹", "< 1e-05 s⁻¹", "0.000353 s⁻¹", "0.000184 s⁻¹", "0.000285 s⁻¹"]

Need self-cleavage kobs at 160 uM GlcN6P for each of these variants.
1. U49G A53G
2. U47C C71U

["0.000136 s⁻¹", "0.000184 s⁻¹"]

Need self-cleavage kobs at 160 uM GlcN6P for each of these variants.
1. G29U A42G A53U
2. A14U U31C

0.000316 s⁻¹
0.000327 s⁻¹

Need self-cleavage kobs at 160 uM GlcN6P for each of these variants.
1. C19A U65A
2. A33G A53C C71U
3. G9C U54A
4. A14G U47C
5. C10G G37C A48U C61A U69C
6. G9U A42U
7. C8U G32U G62U C71U

1: 0.000107 s⁻¹; 2: < 1e-05 s⁻¹; 3: < 1e-05 s⁻¹; 4: 0.00182 s⁻¹; 5: < 1e-05 s⁻¹; 6: < 1e-05 s⁻¹; 7: < 1e-05 s⁻¹

Need self-cleavage kobs at 160 uM GlcN6P for each of these variants.
1. G9C A33U A36G U45A A48C
2. G37A G62C
3. G7U C67A
4. G40C U55C
5. U30G U54A
6. A6C G37U C50U G60C
7. U31A G43A
8. G59C G63A

< 1e-05 s⁻¹
< 1e-05 s⁻¹
< 1e-05 s⁻¹
2.05e-05 s⁻¹
0.000384 s⁻¹
< 1e-05 s⁻¹
< 1e-05 s⁻¹
< 1e-05 s⁻¹

Need self-cleavage kobs at 160 uM GlcN6P for each of these variants.
1. G40A C61A
2. A12U U49G
3. C50U A64U
4. C10U A42C G63A
5. G9A G29A A48C C58U
6. U57C C70U

1. < 1e-05 s⁻¹
2. 9.35e-05 s⁻¹
3. < 1e-05 s⁻¹
4. < 1e-05 s⁻¹
5. < 1e-05 s⁻¹
6. 2.63e-05 s⁻¹
